- test-system: Jak1 (Homo sapiens, UniProt P23458)
- Construct: using a recombinant purified GST-tagged catalytic domain for each enzyme; GST; purchased Invitrogen M4290
- Sequence (P23458 875-1153 limits assumed): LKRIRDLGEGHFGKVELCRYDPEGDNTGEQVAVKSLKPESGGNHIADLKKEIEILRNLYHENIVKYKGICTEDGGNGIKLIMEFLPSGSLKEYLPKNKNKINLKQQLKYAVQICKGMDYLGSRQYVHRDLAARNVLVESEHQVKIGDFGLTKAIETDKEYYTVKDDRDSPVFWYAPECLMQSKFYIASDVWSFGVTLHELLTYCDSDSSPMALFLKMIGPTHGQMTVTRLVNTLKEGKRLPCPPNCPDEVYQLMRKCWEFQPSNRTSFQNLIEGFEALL
- test-description: Jak Biochemical HTRF Assay (Jak1)
- condition-label: IC50 class, recombinant GST-tagged catalytic domain, read-out: Jak1 activity
pIC50: −log10 of the molar value.
reported-metric: pIC50

>>> print(df.to_string())
                                   compound        result
0  CCCCC(=O)N1CCCC2C1CCN2c1ncnc2[nH]ccc12 (racemic)  7.00 to 8.00
1  CCCCOC(=O)N1CCCC2C1CCN2c1ncnc2[nH]ccc12 (racemic)  7.00 to 8.00
2  O=C(OCCOCC(F)(F)F)N1CCC[C@@H]2[C@H]1CCN2c1ncnc2[nH]ccc12 (single isomer, unassigned)  7.00 to 8.00
3  O=C(c1ccccc1-c1ccccc1)N1CCC[C@@H]2[C@H]1CCN2c1ncnc2[nH]ccc12  6.00 to 7.00
4  O=C(O)c1ccc(COC(=O)N2CCC[C@@H]3[C@H]2CCN3c2ncnc3[nH]ccc23)cc1  6.00 to 7.00

Data credit: patent US8937077B2
